Biological target: HLA-A*02:01 (Homo sapiens, UniProt P04439, D140Y/D185E/D98H/E176V/E277Q/G131W/G231S/I119V/I121R/I166T/I218V/L300P/L318F/N151K/N90K/P208A/P217A/Q86G/Q94H/R138H/R169H/T345S)
Test: MHC binding assay (UV-ligand exchange, beta2m ELISA)
Conditions: binding of HLA-class I restricted peptides to HLA-A*02:01, β2m ELISA
From the text: Candidate peptides for T cell based therapies according to the present invention were further tested for their MHC binding capacity (affinity). The individual peptide-MHC complexes were produced by UV-ligand exchange, where a UV-sensitive peptide is cleaved upon UV-irradiation, and exchanged with the peptide of interest as analyzed. Only peptide candidates that can effectively bind and stabilize the peptide-receptive MHC molecules prevent dissociation of the MHC complexes. […]
result.type: Peptide Exchange (MHC class I binding score, peptide exchange yield)

// solved cases for Peptide Exchange (MHC class I binding score, peptide exchange yield) follow
substance	obs.value
306 (VVAEELENV; listed as Homo sapiens) [compound 306]	“++” (≥20% = ++)
124 (LLLEETEKQAV; listed as Homo sapiens) [compound 124]	“+++” (≥50 = +++)
116 (LLIGATMQV; listed as Homo sapiens) [compound 116]	“+++” (≥50 = +++)
22 (ALWDPVIEL; listed as Homo sapiens) [compound 22]	“+++” (≥50 = +++)
133 (YLLSGDISEA; listed as Homo sapiens) [compound 133]	“+++” (≥50 = +++)

Exam item: // Input: 141 (QILSEIVEA; listed as Homo sapiens) [compound 141] . Output its Peptide Exchange (MHC class I binding score, peptide exchange yield) only.
Marked response: “++” (≥20% = ++)

Exam item: Output measured Peptide Exchange (MHC class I binding score, peptide exchange yield) for this item: 341 (LLAELPASVHA; listed as Homo sapiens) [compound 341]
Marked response: “+++” (≥50 = +++)

Exam item: Item 362 (ILTELGGFEV; listed as Homo sapiens) [compound 362] : provide Peptide Exchange (MHC class I binding score, peptide exchange yield)
Marked response: “+++” (≥50 = +++)

====

Target: HLA-A*02:01 (Homo sapiens, UniProt P04439, D140Y/D185E/D98H/E176V/E277Q/G131W/G231S/I119V/I121R/I166T/I218V/L300P/L318F/N151K/N90K/P208A/P217A/Q86G/Q94H/R138H/R169H/T345S)
Assay: MHC binding assay (UV-ligand exchange, beta2m ELISA)
Conditions: binding of HLA-class I restricted peptides to HLA-A*02:01, β2m ELISA
Description: Candidate peptides for T cell based therapies according to the present invention were further tested for their MHC binding capacity (affinity). The individual peptide-MHC complexes were produced by UV-ligand exchange, where a UV-sensitive peptide is cleaved upon UV-irradiation, and exchanged with the peptide of interest as analyzed. Only peptide candidates that can effectively bind and stabilize the peptide-receptive MHC molecules prevent dissociation of the MHC complexes. […]
result.type: Peptide Exchange (MHC class I binding score, peptide exchange yield)

Consider the following illustrative entries.
substance	obs.value
296 (FIAPTGHSL; listed as Homo sapiens) [compound 296]	“++” (≥20% = ++)
169 (TLLLGLTEV; listed as Homo sapiens) [compound 169]	“+++” (≥50 = +++)
174 (VLAELPIIVV; listed as Homo sapiens) [compound 174]	“+++” (≥50 = +++)
245 (KIMDYSLLLGV; listed as Homo sapiens) [compound 245]	“++++” (≥75% = ++++)
218 (ALGEEWKGYVV; listed as Homo sapiens) [compound 218]	“++” (≥20% = ++)
370 (SIFASPESV; listed as Homo sapiens) [compound 370]	“+++” (≥50 = +++)
74 (GLLRASFLL; listed as Homo sapiens) [compound 74]	“++” (≥20% = ++)
171 (TLVPPAALISI; listed as Homo sapiens) [compound 171]	“+++” (≥50 = +++)

Exam item: // fetch Peptide Exchange (MHC class I binding score, peptide exchange yield) given entry 215 (VMQDIVYKL; listed as Homo sapiens) [compound 215]
Marked response: “+++” (≥50 = +++)

Exam item: For 108 (VIYTLIHYI; listed as Homo sapiens) [compound 108] , write its Peptide Exchange (MHC class I binding score, peptide exchange yield).
Marked response: “+++” (≥50 = +++)

Exam item: Return reported Peptide Exchange (MHC class I binding score, peptide exchange yield). Input substance: 47 (FLSDQPEPYL; listed as Homo sapiens) [compound 47]
Marked response: “++” (≥20% = ++)

Exam item: Read the entry 255 (YLFEEAISM; listed as Homo sapiens) [compound 255] and write its reported Peptide Exchange (MHC class I binding score, peptide exchange yield).
Marked response: “+++” (≥50 = +++)

Exam item: Write down Peptide Exchange (MHC class I binding score, peptide exchange yield) measured for item 333 (VTLEFPQLIRV; listed as Homo sapiens) [compound 333]
Marked response: “+++” (≥50 = +++)

Exam item: Input 210 (KLLVQDFFL; listed as Homo sapiens) [compound 210] , output reported Peptide Exchange (MHC class I binding score, peptide exchange yield).
Marked response: “+++” (≥50 = +++)

Exam item: Indicate the recorded Peptide Exchange (MHC class I binding score, peptide exchange yield) value for this substance: 239 (ILAGEMLSV; listed as Homo sapiens) [compound 239]
Marked response: “+++” (≥50 = +++)

Exam item: Fill in reported Peptide Exchange (MHC class I binding score, peptide exchange yield) for this entry: 243 (ILPTLEKELFL; listed as Homo sapiens) [compound 243]
Marked response: “+++” (≥50 = +++)

====

Target: HLA-A*02:01 (Homo sapiens, UniProt P04439, D140Y/D185E/D98H/E176V/E277Q/G131W/G231S/I119V/I121R/I166T/I218V/L300P/L318F/N151K/N90K/P208A/P217A/Q86G/Q94H/R138H/R169H/T345S)
Test: MHC binding assay (UV-ligand exchange, beta2m ELISA)
Conditions: binding of HLA-class I restricted peptides to HLA-A*02:01, β2m ELISA
result.type: Peptide Exchange (MHC class I binding score, peptide exchange yield)

Use the examples below as a reference point.
substance	obs.value
345 (YLIEPDVELQRI; listed as Homo sapiens) [compound 345]	“+++” (≥50 = +++)
152 (SLIRILQTI; listed as Homo sapiens) [compound 152]	“+++” (≥50 = +++)
148 (SIVASLITV; listed as Homo sapiens) [compound 148]	“+++” (≥50 = +++)
241 (ILGDILLKV; listed as Homo sapiens) [compound 241]	“+++” (≥50 = +++)
117 (LLILENILL; listed as Homo sapiens) [compound 117]	“+++” (≥50 = +++)
346 (VLVQVSPSL; listed as Homo sapiens) [compound 346]	“+++” (≥50 = +++)
371 (SLADDSVLERL; listed as Homo sapiens) [compound 371]	“+++” (≥50 = +++)
190 (VVMGTVPRL; listed as Homo sapiens) [compound 190]	“+++” (≥50 = +++)

Exam item: Determine its reported Peptide Exchange (MHC class I binding score, peptide exchange yield): 162 (SMKDDLENV; listed as Homo sapiens) [compound 162]
Marked response: “++” (≥20% = ++)

Exam item: Please give the documented Peptide Exchange (MHC class I binding score, peptide exchange yield) of 42 (FLEEGGVVTV; listed as Homo sapiens) [compound 42]
Marked response: “+++” (≥50 = +++)

Exam item: For the substance 311 (LLVDVEPKV; listed as Homo sapiens) [compound 311] , report Peptide Exchange (MHC class I binding score, peptide exchange yield).
Marked response: “+++” (≥50 = +++)

====

Molecular target: HLA-A*02:01 (Homo sapiens, UniProt P04439, D140Y/D185E/D98H/E176V/E277Q/G131W/G231S/I119V/I121R/I166T/I218V/L300P/L318F/N151K/N90K/P208A/P217A/Q86G/Q94H/R138H/R169H/T345S)
Assay: MHC binding assay (UV-ligand exchange, beta2m ELISA)
Conditions: binding of HLA-class I restricted peptides to HLA-A*02:01, β2m ELISA
result.type: Peptide Exchange (MHC class I binding score, peptide exchange yield)

substance	obs.value
313 (LMADLEGLHL; listed as Homo sapiens) [compound 313]	“+++” (≥50 = +++)
140 (QIAELPATSV; listed as Homo sapiens) [compound 140]	“+++” (≥50 = +++)
160 (SLSFLVPSL; listed as Homo sapiens) [compound 160]	“+++” (≥50 = +++)
246 (KLDETGVAL; listed as Homo sapiens) [compound 246]	“++” (≥20% = ++)
260 (SLDDVEGMSV; listed as Homo sapiens) [compound 260]	“+++” (≥50 = +++)

Exam item: Specify reported Peptide Exchange (MHC class I binding score, peptide exchange yield) for the substance shown: 204 (GLLQINDKIAL; listed as Homo sapiens) [compound 204]
Marked response: “+++” (≥50 = +++)

Exam item: Determine from records and report Peptide Exchange (MHC class I binding score, peptide exchange yield) for 103 (KLGGTPAPA; listed as Homo sapiens) [compound 103]
Marked response: “++” (≥20% = ++)

Exam item: Provide measured Peptide Exchange (MHC class I binding score, peptide exchange yield) value, entry: 258 (RLDYITAEI; listed as Homo sapiens) [compound 258]
Marked response: “+++” (≥50 = +++)

Exam item: Give a short answer stating reported Peptide Exchange (MHC class I binding score, peptide exchange yield) for 80 (VLIEDELEEL; listed as Homo sapiens) [compound 80] .
Marked response: “++” (≥20% = ++)

Exam item: Read off the recorded Peptide Exchange (MHC class I binding score, peptide exchange yield) for 136 (NLDKLWTLV; listed as Homo sapiens) [compound 136]
Marked response: “++” (≥20% = ++)

Exam item: Give Peptide Exchange (MHC class I binding score, peptide exchange yield) for the following substance: 284 (LLSAAEPVPA; listed as Homo sapiens) [compound 284]
Marked response: “++” (≥20% = ++)
